- Subject Of Test: Mu-type opioid receptor (Homo sapiens)
- Sequence (P35372 whole entry): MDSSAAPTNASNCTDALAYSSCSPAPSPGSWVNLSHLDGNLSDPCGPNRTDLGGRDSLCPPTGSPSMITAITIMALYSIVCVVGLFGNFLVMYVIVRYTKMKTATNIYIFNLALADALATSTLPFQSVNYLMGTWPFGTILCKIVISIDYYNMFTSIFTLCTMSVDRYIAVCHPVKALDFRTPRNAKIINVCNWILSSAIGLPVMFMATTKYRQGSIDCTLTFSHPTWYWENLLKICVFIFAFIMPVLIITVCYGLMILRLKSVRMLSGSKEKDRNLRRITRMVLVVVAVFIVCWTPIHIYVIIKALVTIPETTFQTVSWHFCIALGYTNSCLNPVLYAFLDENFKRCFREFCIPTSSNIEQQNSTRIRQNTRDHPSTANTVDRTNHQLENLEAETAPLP
Assignment: determine reported AC50 for the given molecules.

The recorded AC50 for entry CN(CC1(C)CCCO1)S(=O)(=O)c1ccc(Cl)c(S(N)(=O)=O)c1 (stereo not given) [MEFRUSIDE] equals > 30 µM

The recorded AC50 for entry CC[C@H]1OC(=O)[C@H](C)C(=O)[C@H](C)[C@@H](O[C@@H]2O[C@H](C)C[C@H](N(C)C)[C@H]2O)[C@](C)(OC)C[C@@H](C)C(=O)[C@H](C)[C@H]2N(CCCCn3cnc(-c4cccnc4)c3)C(=O)O[C@]12C equals > 30 µM

The recorded AC50 for entry Cc1onc(-c2ccccc2)c1C(=O)N[C@@H]1C(=O)N2[C@@H]1SC(C)(C)[C@@H]2C(=O)O equals > 30 µM

The recorded AC50 for entry [H]/N=C(\N/C(=N/[H])Nc1ccc(Cl)cc1)NC(C)C equals > 30 µM

The recorded AC50 for entry CC(N)Cc1ccc(O)cc1 (stereo not given) [HYDROXYAMPHETAMINE] equals > 30 µM

The recorded AC50 for entry CCN(CCCc1ccccc1)CCCc1ccccc1 equals 2 µM

The recorded AC50 for entry CCOC(=O)N1CSC[C@H]1C(=O)O equals > 30 µM

The recorded AC50 for entry CCc1nc(C(N)=O)c(Nc2ccc(N3CCC(N4CCN(C)CC4)CC3)c(OC)c2)nc1NC1CCOCC1 equals > 30 µM

The recorded AC50 for entry CC(C)(O)CNc1nc(Nc2ccnc(C(F)(F)F)c2)nc(-c2cccc(C(F)(F)F)n2)n1 equals 21.5 µM

The recorded AC50 for entry C[N+](C)(C)C[C@H](O)CC(=O)[O-] equals > 30 µM

The recorded AC50 for entry OC[C@H]1O[C@@H](c2ccc(Cl)c(Cc3ccc(O[C@H]4CCOC4)cc3)c2)[C@H](O)[C@@H](O)[C@@H]1O equals > 30 µM

The recorded AC50 for entry CCC(=O)O[C@]1(C(=O)CCl)[C@@H](C)C[C@H]2[C@@H]3C[C@H](F)C4=CC(=O)C=C[C@]4(C)[C@@]3(F)[C@@H](O)C[C@@]21C [HALOBETASOL PROPIONATE] equals > 30 µM

The recorded AC50 for entry C/C=C/C/C=C/CCC(=O)[C@H]1O[C@H]1C(N)=O equals > 30 µM

The recorded AC50 for entry Cc1cc(N)c2ccccc2[n+]1CCCCCCCCCC[n+]1c(C)cc(N)c2ccccc21 equals 0.684 µM

The recorded AC50 for entry CC(=O)Oc1cc(C(F)(F)F)ccc1C(=O)O equals > 30 µM

The recorded AC50 for entry CC[C@H](c1ccc(O)cc1)[C@@H](CC)c1ccc(O)cc1 equals 15 µM

The recorded AC50 for entry CCC(=O)O[C@]1(C(=O)SCF)[C@H](C)C[C@H]2[C@@H]3C[C@H](F)C4=CC(=O)C=C[C@]4(C)[C@@]3(F)[C@@H](O)C[C@@]21C [FLUTICASONE PROPIONATE] equals > 30 µM

The recorded AC50 for entry COc1ccc(CN(CCN(C)C)c2ccccn2)cc1 equals 9.05 µM

The recorded AC50 for entry CN1CCN(C2=Nc3ccccc3Oc3ccc(Cl)cc32)CC1 equals 8.61 µM

The recorded AC50 for entry Cc1onc(-c2ccccc2)c1-c1ccc(S(N)(=O)=O)cc1 equals > 30 µM

The recorded AC50 for entry Cc1ccccc1N1CCN(CCc2nnc3n2CCCC3)CC1 equals > 30 µM

The recorded AC50 for entry CC(C)N(CCNC(=O)CN1CCCC1=O)C(C)C equals > 30 µM

The recorded AC50 for entry CN1C(C(=O)Nc2ccccn2)=C(O)c2ccccc2S1(=O)=O equals > 30 µM

The recorded AC50 for entry CC1=C(/C=C/C(C)=C/C=C/C(C)=C/C(=O)O)C(C)(C)CCC1 equals > 30 µM

The recorded AC50 for entry CN1CCC(=C2c3ccccc3Sc3ccccc32)CC1 equals 8.56 µM

The recorded AC50 for entry CN(C)CCOC(c1ccccc1)c1ccc(Br)cc1 (stereo not given) [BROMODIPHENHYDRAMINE] equals 17.9 µM

The recorded AC50 for entry COc1c2ccoc2cc2oc(=O)ccc12 equals > 30 µM

The recorded AC50 for entry C#C[C@]1(O)CC[C@H]2[C@@H]3CCC4=CC(=O)CC[C@@H]4[C@H]3C(=C)C[C@@]21CC equals 10.5 µM

The recorded AC50 for entry CC(C)C[C@H](NC(=O)CNC(=O)c1cc(Cl)ccc1Cl)B(O)O equals > 30 µM

The recorded AC50 for entry CN(C)[C@@H]1C(O)=C(C(N)=O)C(=O)[C@@]2(O)C(O)=C3C(=O)c4c(O)ccc(Cl)c4[C@@](C)(O)[C@H]3C[C@@H]12 equals > 30 µM

The recorded AC50 for entry CC(C(=O)O)c1ccc(-c2ccccc2)c(F)c1 (stereo not given) equals > 30 µM

The recorded AC50 for entry N[C@@H](CS)C(=O)O equals > 30 µM

The recorded AC50 for entry CCn1cc(C(=O)O)c(=O)c2cc3c(cc21)OCO3 equals > 30 µM

The recorded AC50 for entry CCCC(CCC)C(=O)O equals > 30 µM

The recorded AC50 for entry C[C@@H]1C[C@H]2[C@@H]3CCC4=CC(=O)C=C[C@]4(C)[C@@]3(Cl)[C@@H](O)C[C@]2(C)[C@@]1(OC(=O)c1ccco1)C(=O)CCl [MOMETASONE FUROATE] equals > 30 µM
